From: ChEMBL document CHEMBL1152472

# MIC values compiled below
- System: Acinetobacter baumannii
- assay-details: Antimicrobial activity against Acinetobacter baumannii BM4579 expressing deltaadeIJK genes isolated from patient with urinary tract infection by E test
- Format: functional
- condition-set: BM4579, Urine
A number alone suffices; assume µg/mL.

# count of solved cases: 5
C[C@H]1COc2c(N3CCN(C)CC3)c(F)cc3c(=O)c(C(=O)O)cn1c23.C[C@H]1COc2c(N3CCN(C)CC3)c(F)cc3c(=O)c(C(=O)O)cn1c23.O
6
CO/N=C(\C(=O)N[C@@H]1C(=O)N2C(C(=O)O)=C(COC(C)=O)CS[C@H]12)c1csc(N)n1
1.5
CN(C)c1ccc(O)c2c1C[C@H]1C[C@H]3[C@H](N(C)C)C(O)=C(C(N)=O)C(=O)[C@@]3(O)C(O)=C1C2=O
0.25
CO[C@H]1/C=C/O[C@@]2(C)Oc3c(C)c(O)c4c(O)c(c(/C=N/N5CCN(C)CC5)c(O)c4c3C2=O)NC(=O)/C(C)=C\C=C\[C@H](C)[C@H](O)[C@@H](C)[C@@H](O)[C@@H](C)[C@H](OC(C)=O)[C@@H]1C
2
CN(C)[C@@H]1C(O)=C(C(N)=O)C(=O)[C@@]2(O)C(O)=C3C(=O)c4c(O)cccc4[C@@](C)(O)[C@H]3C[C@@H]12
4

What does the data say about its MIC? Entry: "CCn1cc(C(=O)O)c(=O)c2cc(F)c(N3CCN(C)CC3)cc21"
24

What does the data say about its MIC? Entry: "COc1c(N2C[C@@H]3CCCN[C@@H]3C2)c(F)cc2c(=O)c(C(=O)O)cn(C3CC3)c12"
12
